target-or-test-system: human P450 51A1 (Homo sapiens)
method-summary: Spectral (difference spectroscopy) Kd estimates of P450 51A1-sterol complexes
Assay type: binding
Design: made in house; host or cells: Escherichia coli
The entries below come with measured Kd values attached.

Data request: Missing value: Kd, human P450 51A1 (Homo sapiens), entry CC(C)CCCC(C)[C@H]1CC[C@@]2(C)C3=C(CC[C@]12C)[C@@]1(C)CC[C@@H](O)C(C)(C)C1CC3 (stereo partly drawn) [epi-dihydrolanosterol, epi-Dihydrolanosterol] . Fill in?
Data returned: 14 nM

***
Data request: Please tell me: Kd of CC(C)CCCC(C)[C@H]1CC[C@@]2(C)C3=C(CC[C@]12C)[C@@]1(C)CC[C@H](O)C(C)(C)C1CC3 (some centres unmarked) [dihydrolanosterol, 24,25-dihydrolanosterol] , system human P450 51A1 (Homo sapiens)?
Data returned: 230 nM

* * *

target-or-test-system: human P450 51A1 (Homo sapiens, UniProt Q16850)
Sequence (Q16850 1-509): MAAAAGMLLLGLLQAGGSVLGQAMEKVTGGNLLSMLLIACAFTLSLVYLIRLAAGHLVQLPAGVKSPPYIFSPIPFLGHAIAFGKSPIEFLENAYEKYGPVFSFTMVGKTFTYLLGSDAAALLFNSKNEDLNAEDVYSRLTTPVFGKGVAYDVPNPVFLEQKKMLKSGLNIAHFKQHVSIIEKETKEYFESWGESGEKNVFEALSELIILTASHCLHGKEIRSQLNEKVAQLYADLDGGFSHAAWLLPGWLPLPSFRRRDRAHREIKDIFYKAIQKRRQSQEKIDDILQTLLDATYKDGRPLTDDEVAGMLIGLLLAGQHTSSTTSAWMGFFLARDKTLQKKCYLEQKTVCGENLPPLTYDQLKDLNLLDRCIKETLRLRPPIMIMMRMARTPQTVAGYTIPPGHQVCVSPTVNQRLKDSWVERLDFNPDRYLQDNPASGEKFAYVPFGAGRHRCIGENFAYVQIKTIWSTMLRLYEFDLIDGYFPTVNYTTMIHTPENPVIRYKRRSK
method-summary: Single-turnover rapid-quench kinetics of [3-3H]-dihydrolanosterol oxidation (radio-HPLC)
Type: biochemical
Parameters: made in house; host or cells: Escherichia coli
condition-parameters: time 3 s
Each entry below carries its recorded concentration in single-turnover reaction.
The reply should read as a number followed by its unit.

Sample answers from the record:
Data request: Entry CC(C)CCCC(C)[C@H]1CC[C@@]2(C)C3=C(CC[C@]12C)[C@@]1(C)CC[C@H](O)C(C)(C)C1CC3 (stereo partly shown) [dihydrolanosterol, 24,25-dihydrolanosterol] , system human P450 51A1 (Homo sapiens, UniProt Q16850): what concentration in single-turnover reaction was measured?
Data returned: 1.1137 µM

Data request: Follow-up item: CC(C)CCCC(C)[C@H]1CC[C@@]2(C=O)C3=C(CC[C@]12C)[C@@]1(C)CC[C@H](O)C(C)(C)C1CC3 (stereo partly drawn) [14α-CHO dihydrolanosterol, 24,25-dihydro-14α-formyl lanosterol]
Data returned: 0 µM

Data request: Do the same for CC(C)CCCC(C)[C@H]1CC[C@@]2(CO)C3=C(CC[C@]12C)[C@@]1(C)CC[C@H](O)C(C)(C)C1CC3 (stereo partly drawn) [14α-CH2OH dihydrolanosterol, 24,25-dihydro-14α-CH2OH lanosterol] please
Data returned: 0 µM

Others:
Data request: Enter reported concentration in single-turnover reaction observed with human P450 51A1 (Homo sapiens, UniProt Q16850) for CC(C)CCC[C@@H](C)[C@H]1CC=C2C3=C(CC[C@@]21C)[C@@]1(C)CC[C@H](O)C(C)(C)[C@@H]1CC3 [dihydro FF-MAS, 24,25-dihydro FF-MAS]
Data returned: 5.8863 µM
